Source: patent US5308864A

measurement.target: HMG-CoA reductase (Rattus norvegicus)
Construct: from tissue; host or cells: rat liver microsomes (cholestyramine-induced)
Sequence (P51639 whole entry): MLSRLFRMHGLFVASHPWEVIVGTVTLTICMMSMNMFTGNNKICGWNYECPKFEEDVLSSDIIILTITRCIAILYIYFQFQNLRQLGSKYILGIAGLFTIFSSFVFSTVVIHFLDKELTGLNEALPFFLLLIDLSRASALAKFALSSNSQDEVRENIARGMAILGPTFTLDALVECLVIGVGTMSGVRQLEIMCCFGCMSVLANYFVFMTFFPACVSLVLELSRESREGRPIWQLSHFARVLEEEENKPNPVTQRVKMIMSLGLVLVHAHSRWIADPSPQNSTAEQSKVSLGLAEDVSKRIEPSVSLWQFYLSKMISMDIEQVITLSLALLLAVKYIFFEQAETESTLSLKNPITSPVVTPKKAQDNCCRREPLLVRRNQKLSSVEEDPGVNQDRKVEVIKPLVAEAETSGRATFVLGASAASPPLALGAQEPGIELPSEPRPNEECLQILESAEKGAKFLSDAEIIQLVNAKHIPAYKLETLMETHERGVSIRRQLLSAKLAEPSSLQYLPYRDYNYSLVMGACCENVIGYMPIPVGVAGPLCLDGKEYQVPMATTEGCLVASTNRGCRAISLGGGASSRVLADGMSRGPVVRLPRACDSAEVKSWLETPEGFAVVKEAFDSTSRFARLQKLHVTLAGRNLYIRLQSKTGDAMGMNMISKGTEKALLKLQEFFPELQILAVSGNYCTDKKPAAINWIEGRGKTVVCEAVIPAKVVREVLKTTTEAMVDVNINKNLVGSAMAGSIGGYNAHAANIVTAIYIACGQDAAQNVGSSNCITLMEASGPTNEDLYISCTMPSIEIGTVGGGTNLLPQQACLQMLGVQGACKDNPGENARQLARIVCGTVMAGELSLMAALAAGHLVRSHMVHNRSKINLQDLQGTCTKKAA
protocol.description: In vitro determination of inhibitory potential of HMG-CoA reductase inhibitors (Test A, rat liver microsomal enzyme)
Assay type: biochemical
assay.context: HMG-CoA reductase from rat liver microsomes; inhibitors converted to sodium salts
measured.quantity: IC50 (nM)

(1) CC[C@H](C)C(=O)O[C@H]1C[C@@H](C)C[C@@H]2C=C[C@H](C)[C@H](CC[C@@H]3C[C@@H](O)CC(=O)O3)[C@@H]12 [Dihydromevinolin, reference compound]
(2) C/C=C\[C@@H]1C[C@H](OC(=O)[C@@H](C)CC)[C@@H]2[C@@H](CC[C@@H](O)C[C@@H](O)CC(=O)O)[C@@H](C)C=C[C@H]2C1
(3) C/C=C/[C@@H]1C[C@H](OC(=O)C(C)(C)CC)[C@@H]2[C@@H](CC[C@@H](O)C[C@@H](O)CC(=O)O)[C@@H](C)C=C[C@H]2C1
input: # desc sort on IC50 across 3 compounds I would appreciate it if you listed the labels in the requested order.
output: 1, 2, 3
(1: 30 nM, 2: 15 nM, 3: 3 nM)
